This collection of values is drawn from ChEMBL document CHEMBL1134600.

# System: MAC15A
# Protocol text: Cytotoxicity against MAC15a cells when the drug is exposed for a time of 96 hr
# Type: functional, cell-based
# Condition parameters: Mus musculus
Value type: IC50 (µM)

INSERT INTO measurements (molecule, unit_descriptor, experimental_result) VALUES
  ('C[n+]1c2ccc(Br)cc2cc2[nH]c3ccccc3c21.[I-]', 'µM', 5.79),
  ('CC(=O)Nc1ccc2[n-]c3cc4ccccc4[n+](C)c3c2c1', 'µM', 15.5),
  ('C[n+]1c2ccc(Br)cc2cc2[nH]c3ccc(Br)cc3c21.[I-]', 'µM', 6.04),
  ('C[n+]1c2ccccc2cc2[nH]c3ccccc3c21 [CRYPTOLEPTINE IODIDE]', 'µM', 9.65);

---

# IC50 per entry
# System: A549
# Protocol text: Cytotoxicity against A549 cells when the drug is exposed for a time of 96 hrs
# Assay type: functional, cell-based
# Condition parameters: Homo sapiens, A549, 96 h
Value type: IC50 (nM)

INSERT INTO assay_data (compound, experimental_result) VALUES
  ('C[n+]1c2ccc(Br)cc2cc2[nH]c3ccccc3c21.[I-]', 2070),
  ('CC(=O)Nc1ccc2[n-]c3cc4ccccc4[n+](C)c3c2c1', 5040),
  ('C[n+]1c2ccccc2cc2[nH]c3ccccc3c21 [CRYPTOLEPTINE IODIDE]', 550);

---

# Tested on: A549
# Protocol text: Cytotoxicity against A549 cells when the drug is exposed for a time of 1 hr
# Assay type: functional, cell-based
# Condition parameters: Homo sapiens, A549, 1 h
# IC50 per entry
Value type: IC50

INSERT INTO measurements (compound, system_name, experimental_result) VALUES
  ('C[n+]1c2ccc(Br)cc2cc2[nH]c3ccccc3c21.[I-]', 'A549', '> 100 µM'),
  ('C[n+]1c2ccccc2cc2[nH]c3ccccc3c21 [CRYPTOLEPTINE IODIDE]', 'A549', '61.4 µM'),
  ('CC(=O)Nc1ccc2[n-]c3cc4ccccc4[n+](C)c3c2c1', 'A549', '> 100 µM'),
  ('C[n+]1c2ccccc2cc2[n-]c3c([N+](=O)[O-])cccc3c21', 'A549', '> 100 µM'),
  ('C[n+]1c2ccccc2cc2[n-]c3c([N+](=O)[O-])cc([N+](=O)[O-])cc3c21', 'A549', '> 100 µM'),
  ('C[n+]1c2ccccc2cc2[n-]c3ccc([N+](=O)[O-])cc3c21', 'A549', '35.6 µM');

---

# System: Plasmodium falciparum
# Protocol text: In vitro inhibitory activity against chloroquine-sensitive Plasmodium falciparum HB3
# IC50 per entry
Value type: IC50

INSERT INTO measurements (sample_smiles, value_type, experimental_result) VALUES
  ('C[n+]1c2ccccc2cc2[nH]c3ccc(Br)cc3c21.[I-]', 'IC50', '190 nM'),
  ('C[n+]1c2ccccc2c(Cl)c2[nH]c3ccccc3c21', 'IC50', '1670 nM'),
  ('C[n+]1c2ccc(Br)cc2cc2[nH]c3ccc(Br)cc3c21.[I-]', 'IC50', '26 nM'),
  ('C[n+]1c2ccc(Br)cc2cc2[nH]c3ccccc3c21.[I-]', 'IC50', '450 nM'),
  ('C[n+]1c2ccccc2cc2[n-]c3c([N+](=O)[O-])cc([N+](=O)[O-])cc3c21', 'IC50', '450 nM'),
  ('C[n+]1c2ccccc2cc2[n-]c3c([N+](=O)[O-])cccc3c21', 'IC50', '4140 nM'),
  ('C[n+]1c2ccccc2cc2[n-]c3ccc([N+](=O)[O-])cc3c21', 'IC50', '140 nM'),
  ('CC(=O)Nc1ccc2[n-]c3cc4ccccc4[n+](C)c3c2c1', 'IC50', '470 nM');

---

# System name: Histidine-rich protein PFHRP-II (Plasmodium falciparum) (UniProt P05227)
# Sequence (P05227 whole entry): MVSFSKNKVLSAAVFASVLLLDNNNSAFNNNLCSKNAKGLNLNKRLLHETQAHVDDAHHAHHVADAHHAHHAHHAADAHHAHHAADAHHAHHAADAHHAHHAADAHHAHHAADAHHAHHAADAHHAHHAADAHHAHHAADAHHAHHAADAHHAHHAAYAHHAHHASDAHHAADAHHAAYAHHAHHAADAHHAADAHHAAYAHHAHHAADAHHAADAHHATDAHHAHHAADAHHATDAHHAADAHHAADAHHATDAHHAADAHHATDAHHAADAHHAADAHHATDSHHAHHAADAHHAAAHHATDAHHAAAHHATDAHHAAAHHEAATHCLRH
# Protocol text: Inhibition of beta-hematin formation; Yes
# Format: functional
Value type: beta-hematin formation inhibition (yes/no)

INSERT INTO results (compound, system_name, experimental_result) VALUES
  ('C[n+]1c2ccccc2cc2[n-]c3c([N+](=O)[O-])cc([N+](=O)[O-])cc3c21', 'Histidine-rich protein PFHRP-II (Plasmodium falciparum) (UniProt P05227)', 'Inhibition'),
  ('C[n+]1c2ccc(Br)cc2cc2[nH]c3ccccc3c21.[I-]', 'Histidine-rich protein PFHRP-II (Plasmodium falciparum) (UniProt P05227)', 'Inhibition'),
  ('CCN(CC)CCCC(C)Nc1ccnc2cc(Cl)ccc12.O=P(O)(O)O.O=P(O)(O)O (stereo unspecified) [CHLOROQUINE PHOSPHATE]', 'Histidine-rich protein PFHRP-II (Plasmodium falciparum) (UniProt P05227)', 'Inhibition'),
  ('C[n+]1c2ccccc2cc2[n-]c3ccc([N+](=O)[O-])cc3c21', 'Histidine-rich protein PFHRP-II (Plasmodium falciparum) (UniProt P05227)', 'Inhibition'),
  ('C[n+]1c2ccccc2cc2[nH]c3ccc(Br)cc3c21.[I-]', 'Histidine-rich protein PFHRP-II (Plasmodium falciparum) (UniProt P05227)', 'Inhibition'),
  ('C[n+]1c2ccc(Br)cc2cc2[nH]c3ccc(Br)cc3c21.[I-]', 'Histidine-rich protein PFHRP-II (Plasmodium falciparum) (UniProt P05227)', 'Inhibition');
